These measurements were taken from patent US4510082A.

Tested on: mouse (Harlan ND4)
test_summary: mouse hot plate test (mouse jump)
Assay type: in vivo
condition_details: subcutaneous injection, tested 15 minutes after administration, hot plate 55° C.
Structures can show the parent of a compound that is named as a salt.
outcome_measure: Mouse Jump ED50 (mg/kg)
Kindly answer with a numeric value in mg/kg, unit omitted.

Task: Could you tell me which Mouse Jump ED50 is on file for CCN(C(=O)CNC(=O)[C@@H](C)NC(=O)[C@H](Cc1ccc(O)cc1)NC)[C@@H](Cc1ccccc1)CN(C)C [Ala Et H, Diacetate Salt] ?
Output: 0.04

Task: Could you tell me which Mouse Jump ED50 is on file for CCN(C(=O)CNC(=O)[C@@H](C)NC(=O)[C@H](Cc1ccc(O)cc1)NC)[C@@H](Cc1ccc(F)cc1)CN(C)C [Ala Et p-F, Diacetate Salt] ?
Output: 0.04

Task: Could you tell me which Mouse Jump ED50 is on file for CCN(C(=O)CNC(=O)[C@@H](COC)NC(=O)[C@H](Cc1ccc(O)cc1)NC)[C@@H](Cc1ccccc1)CN(C)C [Ser(Me) Et H, Diacetate Salt] ?
Output: 0.09

Task: Could you tell me which Mouse Jump ED50 is on file for CN[C@@H](Cc1ccc(O)cc1)C(=O)N[C@H](C)C(=O)NCC(=O)N(C)[C@@H](Cc1ccccc1)CN(C)C [Ala Me H, Diacetate Salt] ?
Output: 0.05
